Test: NCI Yeast Anticancer Drug Screen. Data for the sgs1 mgt1 strain (AID 161);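 also: 0% = growth of cultures given vehicle only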
Details: S. cerevisiae sgs1 mgt1 strain, at 50.0 µM (retest, dose inferred, filed as 5.0)
About 79,000 compounds went through this panel and 15% of them were active in at least one assay; those are over-represented in the sample as a whole. Calls of active or inactive are those of the source. Rule as the data show it: active = growth inhibition above about 70%; inactive = the rest.
Give your call using only these classes: 1.0 for active, 0.0 for inactive

Example results:
{"columns": ["Molecule", "Group Label"],
 "data": [
  ["CC1=CCC(C(C)(C)c2ccc(O)cc2)CC1 (centres undefined)", 1.0],
  ["Cc1ccc(S(=O)(=O)N/N=C/C2(c3ccccc3)c3ccccc3-c3ccccc32)cc1", 1.0],
  ["CN[C@@H]1C[C@H]2O[C@@](C)([C@@H]1OC)n1c3ccccc3c3c4c(c5c6ccccc6n2c5c31)C(=O)N[C@@H]4O", 0.0]
]}

Read the next record carefully.
Asked: Entry COc1ccc(S(=O)(=O)N/N=C\c2cc([N+](=O)[O-])cc(I)c2O)c(OC)c1OC : call = ?
Given back: 1.0

###

Assay: NCI Yeast Anticancer Drug Screen. Data for the rad50 strain (AID 155);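 also: 0% = growth of vehicle-only cultures of the same strain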
Conditions: S. cerevisiae rad50 strain growth inhibition; at 11.0 µM; hits give high values
About 79,000 compounds went through this panel and 15% of them were active in at least one assay; those are over-represented in the sample as a whole.
Observation Type: growth inhibition (%)
Numeric answer only, unit % assumed.

Answered cases to consult:
{"columns": ["Molecule", "Observation Type", "Units Text", "Result Number"],
 "data": [
  ["CCN(CC)CC(O)c1cc(-c2ccc(Cl)cc2)nc2c(-c3ccccc3)cccc12 (stereo not given)", "growth inhibition", "%", 98],
  ["CN(N=O)C(=O)N[C@@H](C=O)[C@@H](O)[C@H](O)[C@H](O)CO", "growth inhibition", "%", 4],
  ["N#C/C(=C/N1C(=O)/C(=C/c2ccc([N+](=O)[O-])cc2)SC1=S)c1nc2ccccc2s1", "growth inhibition", "%", 0]
]}

Asked: Would you kindly share the measured growth inhibition for Cc1c(-c2ccccc2)[nH]c2ccccc12 ?
Given back: -12

Asked: Would you kindly share the measured growth inhibition for COC(=O)CSc1nnc(CSc2ccc(Cl)cc2)n1-c1ccccc1 ?
Given back: 9

###

# growth inhibition listing for each entry below
Test: NCI Yeast Anticancer Drug Screen. Data for the cln2 rad14 strain (AID 165);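 also: 0% = growth equal to vehicle treated cultures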
Details: S. cerevisiae cln2 rad14 strain, at 5.0 µM (retest, dose inferred, filed as 0.5), hits give high values
About 79,000 compounds went through this panel and 15% of them were active in at least one assay; those are over-represented in the sample as a whole.
Numeric answer only, unit % assumed.

Asked: Would you kindly share the measured growth inhibition for O=C1c2c(O)cccc2-c2nn(CCNCCO)c3ccc(NCCNCCO)c1c23 ?
Given back: 26

Asked: Would you kindly share the measured growth inhibition for Cc1ccc2occ/c(=N\Nc3ccccc3)c2c1 ?
Given back: -21

Asked: Would you kindly share the measured growth inhibition for CCC(NC(C)c1ccccc1)C(=O)c1ccc(OCc2ccccc2)c(OCc2ccccc2)c1 (stereo not drawn) ?
Given back: -9

###

Experiment: NCI Yeast Anticancer Drug Screen. Data for the wt1 strain (AID 149);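 also: 0% = growth of vehicle-treated wt1 cultures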
Details: S. cerevisiae wt1 strain (SPY 50644) growth inhibition; at 100.0 µM
Compounds without any hit were thinned out: in the full panel of roughly 79,000, 15% have a hit. Active and inactive are the calls of the source. Rule as the data show it: active = growth inhibition above about 70%; inactive = the rest.
Give your call using only these classes: true (active), false (inactive)

Example results:
{"columns": ["Compound", "Group Label"],
 "data": [
  ["COC(=O)c1cccc(C)c1C(=O)c1c(C)cc(C)cc1C", "false"],
  ["NC(N)=N/N=C/c1cc(Cl)cc(Cl)c1O", "true"]
]}

Asked: Entry CC(=O)[C@]1(O)Cc2c(O)c3c(c(O)c2[C@@H](OC2CC(N)C(O)C(C)O2)C1)C(=O)c1c(OCc2ccccc2)cccc1C3=O (stereo partly specified) : call = ?
Given back: false

Asked: Entry COc1cccc(C(c2cc3c(cc2O)OCO3)N2CCOCC2)c1OC (stereo unspecified) : call = ?
Given back: false

Asked: Entry CC(=O)O[C@H]1C(=O)[C@@]2(C)[C@H]([C@H](OC(=O)c3ccccc3)[C@]3(O)C[C@H](OC(=O)[C@H](O)[C@@H](NC(=O)c4ccccc4)c4ccccc4)C(C)=C1C3(C)C)[C@]1(OC(C)=O)CO[C@@H]1C[C@@H]2O : call = ?
Given back: false

Asked: Entry CN(N=O)c1ccc(/C=C/c2ccnc3ccccc23)cc1 : call = ?
Given back: false

Asked: Entry Cc1cc(Cl)ccc1NC(=O)/C(Cl)=C1/Sc2ccccc2NC1=O : call = ?
Given back: false

Asked: Entry CN=C(N)N/N=C(\C)c1ccc2oc3ccc(/C(C)=N/NC(N)=NC)cc3c2c1 : call = ?
Given back: true

Asked: Entry CC(=O)OCC1OC(O[C@H]2C=C[C@@H](C(=O)OCc3ccccc3)n3c(=O)n(-c4ccccc4)c(=O)n32)C(OC(C)=O)C(OC(C)=O)C1OC(C)=O (stereo partly specified) : call = ?
Given back: false

Asked: Entry CNc1ccc(Cc2c[nH]c3ccccc23)cc1 : call = ?
Given back: false

Asked: Entry CSc1s[s+]c(SC)c1-c1ccccc1 : call = ?
Given back: false

Asked: Entry C=C(CCCO)[C@@H]1CC[C@@](C)(O)[C@H]1C : call = ?
Given back: false
